// values below are MIC; system is opfGWT1 expressing yeast
Report the value in µg/mL with no unit label.

>>> quantitativeresult("Nc1nc(CCF)ccc1C(=O)NCc1ccc(Oc2ccccc2)s1 [Reference Example A-177]")
25

Incoming: Request - read-out MIC | tested on opfGWT1 expressing yeast | molecule CCOCCNc1ccc(C(=O)NCc2ccc(Oc3ccccc3)s2)c(N)n1 [Reference Example A-105]
Outgoing: 25

Incoming: Request - read-out MIC | tested on opfGWT1 expressing yeast | molecule Nc1ncccc1C(=O)NCc1ccc(Oc2cccc(F)c2)s1 [Reference Example A-68]
Outgoing: 12.5

Incoming: Request - read-out MIC | tested on opfGWT1 expressing yeast | molecule Nc1ncccc1C(=O)NCc1ccc(Cc2cccc(Cl)c2)o1 [Reference Example A-4]
Outgoing: 6.25

Incoming: Request - read-out MIC | tested on opfGWT1 expressing yeast | molecule Nc1ncccc1C(=O)NCc1ccc(Cc2cccc(F)c2)o1 [Reference Example A-6]
Outgoing: 25

Incoming: Request - read-out MIC | tested on opfGWT1 expressing yeast | molecule O=C(NCc1ccc(Oc2cccc(F)c2)s1)c1ccc2ncccc2c1 [Reference Example E-65]
Outgoing: 25

Incoming: Request - read-out MIC | tested on opfGWT1 expressing yeast | molecule Nc1ccc(C(=O)NCc2ccc(Oc3ccccc3)s2)c(N)n1 [Reference Example A-54]
Outgoing: 25

Incoming: Request - read-out MIC | tested on opfGWT1 expressing yeast | molecule Nc1ncccc1C(=O)NCc1ccc(Oc2ccc(F)cc2)s1 [Reference Example A-69]
Outgoing: 25

Incoming: Request - read-out MIC | tested on opfGWT1 expressing yeast | molecule CCCCOCc1ccc(CNC(=O)c2ccc(COC)nc2N)cc1 [Reference Example A-182]
Outgoing: 6.25

Incoming: Request - read-out MIC | tested on opfGWT1 expressing yeast | molecule C=Cc1ccc(C(=O)NCc2ccc(Oc3ccccc3)s2)c(N)n1 [Reference Example A-168]
Outgoing: 12.5

* * *

// values below are MIC; system is opfGWT1 expressing yeast
Report the value in µg/mL with no unit label.

>>> quantitativeresult("Nc1ncccc1C(=O)NCc1ccc(Oc2ccccc2)s1 [Reference Example A-67]")
12.5
>>> quantitativeresult("CCCCOc1ccc(CNC(=O)c2ccc(COC)nc2N)cc1 [Reference Example A-188]")
6.25
>>> quantitativeresult("Nc1ncccc1C(=O)NCc1ccc(Cc2cccc(Cl)c2)s1")
12.5
>>> quantitativeresult("COCc1ccc(C(=O)NCc2ccc(Oc3cccc(F)c3)s2)c(N)n1 [Reference Example A-123]")
25
>>> quantitativeresult("Nc1ncccc1C(=O)NCc1ccc(Oc2cccc(Cl)c2)s1 [Reference Example A-73]")
6.25
>>> quantitativeresult("Nc1ncccc1C(=O)NCc1cc(Oc2ccccc2)cs1 [Reference Example A-72]")
12.5
>>> quantitativeresult("Nc1ccc(C(=O)NCc2ccc(OCc3cccc(Cl)c3)cc2)c(N)n1 [Reference Example A-173]")
12.5
>>> quantitativeresult("CC(=O)c1ccc(C(=O)NCc2ccc(Oc3ccccc3)s2)c(N)n1 [Reference Example A-98]")
12.5

Proceeding to the next molecule to report its MIC.
Incoming: Request - read-out MIC | tested on opfGWT1 expressing yeast | molecule Cc1cccc(Oc2ccc(CNC(=O)c3cccnc3N)s2)c1 [Reference Example A-64]
Outgoing: 12.5
